Target: T1, CT-Ler (Escherichia coli EHEC O157:H7, UniProt Q7DB51 70-116)
T1 chain: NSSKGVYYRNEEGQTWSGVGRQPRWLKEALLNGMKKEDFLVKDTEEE
Experiment: fluorescence anisotropy; Anisotropy: 40 mM HEPES pH 7.5, 60 mM K-glutamate, 0.01% NaN3, 20 C; EMSA: 15 mM Na-phosphate pH 7.5, 100 mM NaCl, 0.01% NaN3, room temperature; NMR structure:
Settings: protein: recombinant; tags: N-terminal His6 (pHAT2); blunt
value.type: Kd (nM)
# unit: nM | format: bare number

Entry LeeH A4G (dsDNA) DNA 1: GCGGTAATTGATACC DNA 2: GGTATCAATTACCGC : reported Kd = ?
1060

Name the recorded Kd for LeeH A13G (dsDNA) DNA 1: GCGATAATTGATGCC DNA 2: GGCATCAATTATCGC .
1480

Any idea what Kd was measured for LeeH T9C (dsDNA) DNA 1: GCGATAATCGATACC DNA 2: GGTATCGATTATCGC ?
1360

Tell me the measured Kd of AAAT 10-mer (dsDNA) DNA 1: CGCAAATGCG DNA 2: CGCATTTGCG , please.
6170
